Target: MLL1-ASH2L/RbBP5/WDR5/DPY30 (Homo sapiens)
Assay: Inhibition of human N-terminal GST-tagged MLL1 (3735 to 3973 residues) interaction with human full length N-terminal 6xHis-tagged ASH2L/N-terminal 6xHis-tagged human full length RbBP5/human N-terminal 6xHis-tagged WDR5/human full length N-terminal 6xHis-tagged DPY30 assessed as decrease in H3K4me1-2 methylation preincubated for 30 mins followed by SAM/nucleosome mixture addition measured after 120 mins in absence of light by AlphaLISA assay
Bridge positions count the residues as written; N and C are the ends. Square brackets hold non-standard residues; d marks the D form. Peptide text beside a SMILES is read from it. * marks the point of attachment. Arg(Me2s) = CN=C(NC)NCCC[C@H](N)C(=O)O; d(αMeK) = C[C@@](N)(CCCCN)C(=O)O; dPhg = N[C@@H](C(=O)O)c1ccccc1; dOrn = NCCC[C@@H](N)C(=O)O; dDab = NCC[C@@H](N)C(=O)O; Isobutyryl = CC(C)C(=O)*; dDap = NC[C@@H](N)C(=O)O; Abu = CC[C@H](N)C(=O)O
measureName: IC50

# count of solved cases: 6
CC[C@@H]1NC(=O)[C@H](CCCNC(=N)N)NC(=O)[C@](C)(NC(=O)C(C)C)CCCCN(C)C(=O)[C@@H](c2ccc(Cl)cc2)NC1=O.O=C(O)C(F)(F)F = 124 nM
CC[C@@H]1NC(=O)[C@H](CCCNC(=N)N)NC(=O)[C@H](NC(=O)C(C)C)CCNC(=O)[C@@H](c2ccccc2)NC1=O (Isobutyryl-[dDab]R[Abu][dPhg]; lactam 1-C) = 1800 nM
CC[C@@H]1NC(=O)[C@H](CCCNC(=N)NC)NC(=O)[C@](C)(NC(=O)C(C)C)CCNC(=O)[C@H](c2ccccc2)NC1=O = 477 nM
CC[C@@H]1NC(=O)[C@H](CCCNC(=N)N)NC(=O)[C@](C)(NC(=O)C(C)C)CCCCN(C)C(=O)[C@@H](c2ccccc2)NC1=O.O=C(O)C(F)(F)F = 190 nM
CC[C@@H]1NC(=O)[C@H](CCCNC(=N)N)NC(=O)[C@H](NC(=O)C(C)C)CCCNC(=O)[C@@H](c2ccccc2)NC1=O (Isobutyryl-[dOrn]R[Abu][dPhg]; lactam 1-C) = > 10000 nM
CC[C@@H]1NC(=O)[C@H](CCCN/C(=N/C)NC)NC(=O)[C@](C)(NC(=O)C(C)C)CCCCNC(=O)[C@@H](c2ccccc2)NC1=O (Isobutyryl-[d(αMeK)][Arg(Me2s)][Abu][dPhg]; lactam 1-C) = 1260 nM

Query CC[C@@H]1NC(=O)[C@H](CCCNC(=N)N)NC(=O)[C@](C)(NC(=O)C(C)C)CCNC(=O)[C@@H](c2ccccc2)NC1=O.O=C(O)C(F)(F)F on MLL1-ASH2L/RbBP5/WDR5/DPY30 (Homo sapiens); IC50 returned: 12.6 nM

Query CC[C@@H]1NC(=O)[C@H](CCCNC(=N)N)NC(=O)[C@H](NC(=O)C(C)C)CCCCNC(=O)[C@@H](c2ccccc2)NC1=O (Isobutyryl-[dK]R[Abu][dPhg]; lactam 1-C) on MLL1-ASH2L/RbBP5/WDR5/DPY30 (Homo sapiens); IC50 returned: > 10000 nM

Query CC[C@@H]1NC(=O)[C@H](CCCNC(=N)N)NC(=O)[C@](C)(NC(=O)C(C)C)CCCCCNC(=O)[C@@H](c2ccccc2)NC1=O on MLL1-ASH2L/RbBP5/WDR5/DPY30 (Homo sapiens); IC50 returned: 1530 nM

Query CC[C@@H]1NC(=O)[C@H](CCCNC(=N)N)NC(=O)[C@H](NC(=O)C(C)C)CNC(=O)[C@@H](c2ccccc2)NC1=O (Isobutyryl-[dDap]R[Abu][dPhg]; lactam 1-C) on MLL1-ASH2L/RbBP5/WDR5/DPY30 (Homo sapiens); IC50 returned: > 10000 nM

Query CC[C@@H]1NC(=O)[C@H](CCCNC(=N)N)NC(=O)[C@](C)(NC(=O)C(C)C)CCCNC(=O)[C@@H](c2ccccc2)NC1=O.O=C(O)C(F)(F)F on MLL1-ASH2L/RbBP5/WDR5/DPY30 (Homo sapiens); IC50 returned: 84.8 nM
